Consider the following variants and their measured self-cleavage readings.
B1: CPEB3 Ribozyme (parent)
chain: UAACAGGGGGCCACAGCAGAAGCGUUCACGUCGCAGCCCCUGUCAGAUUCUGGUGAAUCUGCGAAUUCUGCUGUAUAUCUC

Variants of: B1
protocolNotes: self-cleavage, relative activity (ratio to wild type); higher = more cleavage; in vitro, sequencing
reportedEndpoint: self-cleavage

INSERT INTO measurements (variantdescriptor, observed) VALUES
  ('U26G U51G', 0.33),
  ('C12U U54G', 1.01),
  ('A5U C79U', 1.24),
  ('G30A A75G', 0.26),
  ('C50A', 0.88),
  ('G24A U66C', 0.39),
  ('U51G A56G', 0.65),
  ('C11G U54A', 0.28),
  ('A5U U80A', 1.32),
  ('U1A G8A', 0.19),
  ('C68A G70U', 0.36),
  ('C4A C79G', 1.25),
  ('U49C G52A', 0.8),
  ('G8U A13U', 0.3),
  ('A13U G61A', 0.91),
  ('A28C A35G', 0.98),
  ('U31A C62A', 0.28),
  ('A20G G33U', 0.29),
  ('U26C C79U', 0.55),
  ('C27U U49C', 0.15),
  ('U58A G70C', 0.14),
  ('G7A A56G', 0.15),
  ('G9A A65U', 0.17),
  ('A15C U43C', 0.46),
  ('G6A A18G', 0.31),
  ('U31G U67C', 0.3),
  ('A28G G42U', 0.26),
  ('C12A U49C', 0.63),
  ('A3G C23G', 0.33),
  ('C50A A64C', 0.43),
  ('U25C A65G', 0.3),
  ('G10C G52A', 0.2),
  ('A28G U43G', 0.17),
  ('C32U U76A', 0.18),
  ('C39U A77G', 0.83),
  ('A2G U54C', 0.58);
